System: HCT-116
Run Description: Cytotoxicity assay (SRB), HCT-116
Format: cell-based
Condition: HCT116 cells, 3 days, SRB; read-out: In Vitro Cellular Activity IC50 HCT116
Recorded Metric: pIC50
Give bare numbers, as −log10 of the molar value.

Record lookup: for HCT-116, what pIC50 belongs to O=C1NC(=O)c2ccc(I)cc2/C1=C/NCc1ccn(-c2ccccc2)c(=O)c1 ?
6.64

* * *

Consider the following compounds; for each one, report its melting point.
Structures can show the parent of a compound that is named as a salt.

CN1CCN(c2ccc(N/C=C3\C(=O)NC(=O)c4ccc(-c5ccoc5)cc43)nn2)CC1    275 to 276 °C

Batch of 4 compounds: report melting point for each.
1. COc1cc(CN/C=C2\C(=O)NC(=O)c3ccc(-c4ccsc4)cc32)cc(O)c1OC
2. O=C1NC(=O)c2ccc(Br)cc2/C1=C/NCc1ccc(NC(=O)C(F)(F)F)c(O)c1
3. O=C1NC(=O)c2ccc(Br)cc2/C1=C/Nc1cc(F)c(N2CCN3CCC[C@H]3C2)c(F)c1
4. O=C1NC(=O)c2ccc(Br)cc2/C1=C/NCc1ccc(OCCO)c(O)c1 (as salt: potassium)

255 to 256 °C
278 to 279 °C
190 to 191 °C
166 to 167 °C

Please report melting point for every entry that follows.
1. O=C1NC(=O)c2ccc(-c3ccccc3)cc2/C1=C/Nc1ccc(CN2CCCCC2)cc1
2. O=C1NC(=O)c2ccc(-n3cccc3)cc2C1=CNCc1cc(=O)c(O)co1
3. O=C1NC(=O)c2ccc(Br)cc2/C1=C/NCCc1c[nH]c2ccccc12

1: 214 to 215 °C; 2: 310 to 312 °C (dec.); 3: 278 to 280 °C
